From: PubChem BioAssay (NCI)

Form field: growth (one value per entry).
system: DU-145 prostate; experiment: NCI-60 one-dose screen, 48 h (100 = growth as untreated, 0 = no growth, -100 = all killed); details: 10 µM unless noted
The panel holds about 83,000 compounds, 20% with a hit somewhere; the sample as a whole holds those more often.
outcome-measure: growth (%)

# molecule, outcome-measure, units-of-measure, reported
rows = [
    ("CN1C(=O)c2cc(Cl)nc3c(NC(=O)c4cccc(Cl)c4)c(Cl)c(NC(=O)c4cccc(Cl)c4)c1c23", "growth", "%", 4.2),
    ("COC(=O)/C=C/c1cc(OC)c2c(c1)[C@@H](C(=O)OC)[C@H](c1ccc(OC)c(OC)c1)O2", "growth", "%", 14),
    ("CCCn1cc(/C=N\\N=C2\\C(=O)Nc3ccc(C)cc32)c2ccccc21", "growth", "%", 66.4),
    ("O=C1NN(c2ccccc2)C(c2ccc3c(c2)OCO3)N2CCC[C@@H]12 (some centres undefined)", "growth", "%", 101),
    ("COc1ccc(Nc2nc(SCC(C)C)nc(-c3ccc(F)cc3)c2C#N)cc1", "growth", "%", 79.4),
    ("O=C(O)c1cn(C2CC2)c2cc(N3CCN(C(=O)CSc4nnc(-c5ccc(Cl)cc5)n4-c4ccccc4)CC3)c(F)cc2c1=O", "growth", "%", 108),
    ("COC(=O)c1oc2c(C(=O)/C=C/c3ccc(OC)cc3)c(OCCCN3CCCCC3)ccc2c1C", "growth", "%", 15.4),
    ("COc1ccc(Sc2[nH]c(C(C)=O)c3ccccc23)cc1", "growth", "%", 89.4),
    ("COc1cc(F)c(-c2nc3c(C)cccc3n2Cc2c(F)cccc2F)c(F)c1", "growth", "%", 108),
]

###

System: NCI-H522 lung
Assay: NCI-60 one-dose screen, 48 h
Settings: 10 µM unless noted
Experimental: Growth inhibition of the NCI-H522 human Non-Small Cell Lung tumor cell line is measured as a screen for anti-cancer activity. Cells are grown in 96 well plates and exposed to the test compound for 48 hours. Compounds are tested at a single concentration, which is 10^-5 M for most compounds. The reported endpoint is percent growth (GI% or GIPRCNT), where numbers from 0 - 100% represent growth inhibition, and numbers from -100% - 0 represent cell death. […]
This is part of a sample that, as a whole, favours compounds with a hit. Of some 83,000 tested, about 20% had one in any assay. Active and inactive are the calls of the source. The calls were made as follows: active = growth percent below 10; inactive = the rest.
Outcomes: YES for active, NO for inactive

# compound, study-target, class-assignment
records = [
    ("O=C(Nc1nc(-c2ccccc2Cl)cs1)c1cc(-c2ccc(Br)cc2)nc2ccccc12", "NCI-H522 lung", "YES"),
    ("CCCCc1nc(Cl)c(C2CC(c3ccc(Cl)cc3)=NN2c2cc(Cl)cc(Cl)c2)[nH]1 (stereo not drawn)", "NCI-H522 lung", "NO"),
    ("Nc1c(C(=O)Nc2ccccn2)sc2nc3c(cc12)CCCC3", "NCI-H522 lung", "NO"),
    ("COc1ccc2cc(/C=C3\\N=C(c4cc(OC)c(OC)c(OC)c4)OC3=O)c(OC)nc2c1", "NCI-H522 lung", "NO"),
    ("Cc1cnc(-c2ccc(-c3ccc(NC(=O)Nc4c(F)cc(F)cc4F)cc3F)c3c2C(=O)NC3)[nH]1", "NCI-H522 lung", "NO"),
    ("O=CN1N=C(c2ccc(F)cc2)CC1c1cccc(Nc2ccnc3cc(C(F)(F)F)ccc23)c1 (stereo not drawn)", "NCI-H522 lung", "NO"),
    ("C=C1C(=O)O[C@H]2[C@H]1CC/C(COC(=O)CCCCCCC(=O)OC/C1=C/CC[C@@]3(C)O[C@H]3[C@H]3OC(=O)C(=C)[C@@H]3CC1)=C\\CC[C@@]1(C)O[C@@H]21", "NCI-H522 lung", "YES"),
    ("CC1=C(CCCOC(=O)NCCCl)C2=C(C)C3(CC3)[C@@](C)(O)C(=O)C2=C1", "NCI-H522 lung", "NO"),
    ("COC(=O)c1nc(-c2ccccc2)oc1S(=O)(=O)n1nc(-c2ccccc2)cc1N", "NCI-H522 lung", "NO"),
    ("Cc1cc(C)cc(Nc2nccc(-c3c(-c4ccc(F)cc4)ncn3C3CCNCC3)n2)c1", "NCI-H522 lung", "YES"),
    ("CCN1CCN(c2ccc(NC(=O)Nc3nc4ccc(-c5ccccc5OC)cc4s3)cc2)CC1", "NCI-H522 lung", "YES"),
    ("NS(=O)(=O)c1ccc(N2Cc3cc(Cl)ccc3OC3=C2C(=O)N(CC2CCCCC2)C3=O)cc1", "NCI-H522 lung", "YES"),
    ("C=C(C)[C@@H]1CC[C@]2(C(=O)O)CC[C@]3(C)[C@H](CC[C@@H]4[C@@]5(C)C[C@@H](CC#Cc6ccccc6C)C(=O)C(C)(C)[C@@H]5CC[C@]43C)[C@@H]12", "NCI-H522 lung", "YES"),
    ("CCC[S@](=O)c1ccc2nc(NC(=O)OC)[nH]c2c1", "NCI-H522 lung", "NO"),
    ("CCc1n(Cc2ccc3ccccc3c2)c2ccccc2[n+]1Cc1ccc2ccccc2c1", "NCI-H522 lung", "NO"),
    ("COc1cccc2c1-c1ccccc1C2=O", "NCI-H522 lung", "YES"),
    ("C=C1C(=O)O[C@H]2[C@H]1CC/C(COC(=O)n1ccnc1)=C\\CC[C@@]1(C)O[C@@H]21", "NCI-H522 lung", "NO"),
    ("CCOC(=O)c1sc(/N=C2\\NC(=O)/C(=C/c3ccc(N4CCN(C)CC4)cc3)S2)nc1C", "NCI-H522 lung", "NO"),
]

###

system: OVCAR-4 ovarian; assay: NCI-60 one-dose screen, 48 h; settings: 10 µM unless noted
About 83,000 compounds went through this panel and 20% of them were active in at least one assay; those are over-represented in the sample as a whole. Calls of active or inactive are those of the source. The calls were made as follows: active = growth percent below 10; inactive = the rest.
Possible outcomes: 1 (active), -1 (inactive)

# molecule, class-assignment
measured = [
    ("COc1cc(-c2nn(-c3ccc(Br)cc3)cc2CO)ccc1O", -1),
    ("C=CCn1c(SCC(=O)Nc2ccc(C(=O)/C=C/c3cc(OC)c(OC)c(OC)c3)cc2)nnc1-c1ccccc1", -1),
    ("CCC1=C[C@H]2CN(CCc3c([nH]c4ccccc34)[C@@](C(=O)OC)(c3cc4c(cc3OC)N(C)[C@H]3[C@@](O)(C(=O)OC)[C@H](OC(C)=O)[C@]5(CC)[C@@H]6C[C@@H]6CN6CC[C@]43[C@@H]65)C2)C1", -1),
    ("CC(=O)OC[C@]12CC[C@@H](c3cn(Cc4ccc(Cn5cc([C@@H]6CC[C@]7(COC(C)=O)CC[C@]8(C)[C@H](CC[C@@H]9[C@@]%10(C)CC[C@H](OC(C)=O)C(C)(C)[C@@H]%10CC[C@]98C)[C@@H]67)nn5)cc4)nn3)[C@@H]1[C@H]1CC[C@@H]3[C@@]4(C)CC[C@H](OC(C)=O)C(C)(C)[C@@H]4CC[C@@]3(C)[C@]1(C)CC2", -1),
    ("O=C1CS/C(=N/c2nnc(-c3ccc(O)cc3)s2)N1", -1),
    ("CCOCc1cc(C(C)(C)C)ccc1O", -1),
    ("O=[N+]([O-])c1cccc(CN(Cc2cccc([N+](=O)[O-])c2O)c2ccccc2)c1O", -1),
    ("COc1cc(C(=O)Nc2cc(O)c(C/C=C(\\C)CCC=C(C)C)c(O)c2)cc2c1O[C@]1(C)CC[C@@H](O)C(C)(C)[C@H]1C2", -1),
    ("CCOC(=O)C1CCN(S(=O)(=O)/N=C2/NC(=O)NC2=C(Cl)Cl)CC1", -1),
    ("CC(=O)Nc1nc2c(c(N)c1C#N)C(c1cccc(Cl)c1)C1=C(CCCC1=O)N2c1sc2c(c1C#N)CCCC2 (stereo not given)", -1),
    ("CNc1cccc2c1C(=O)c1cccc(N)c1C2=O", -1),
    ("COc1ccc2nc3c(n2c1)C(=O)C(=O)c1ccccc1-3", 1),
    ("Cc1cc(C)c(NC(=O)c2sc3nc4c(cc3c2N)CCCCCC4)c(C)c1", -1),
    ("C=C1C(=O)O[C@H]2[C@H]1CCC(/C=N/c1ncc(Br)cc1N)=C\\CC[C@@]1(C)O[C@@H]21", -1),
    ("C=C1C(=O)O[C@H]2[C@H]1CC/C(COC(=O)CCC(=O)OC/C1=C/CC[C@@]3(C)O[C@H]3[C@H]3OC(=O)C(=C)[C@@H]3CC1)=C\\CC[C@@]1(C)O[C@@H]21", -1),
]
